For each record, write down the corresponding Target Concentration 100 (phage screen NGS readout).
- target_or_system: beta-catenin (Homo sapiens)
- Construct: made in house; host or cells: E. coli BL21 (DE3) pLysS
- Sequence (P35222 134-665): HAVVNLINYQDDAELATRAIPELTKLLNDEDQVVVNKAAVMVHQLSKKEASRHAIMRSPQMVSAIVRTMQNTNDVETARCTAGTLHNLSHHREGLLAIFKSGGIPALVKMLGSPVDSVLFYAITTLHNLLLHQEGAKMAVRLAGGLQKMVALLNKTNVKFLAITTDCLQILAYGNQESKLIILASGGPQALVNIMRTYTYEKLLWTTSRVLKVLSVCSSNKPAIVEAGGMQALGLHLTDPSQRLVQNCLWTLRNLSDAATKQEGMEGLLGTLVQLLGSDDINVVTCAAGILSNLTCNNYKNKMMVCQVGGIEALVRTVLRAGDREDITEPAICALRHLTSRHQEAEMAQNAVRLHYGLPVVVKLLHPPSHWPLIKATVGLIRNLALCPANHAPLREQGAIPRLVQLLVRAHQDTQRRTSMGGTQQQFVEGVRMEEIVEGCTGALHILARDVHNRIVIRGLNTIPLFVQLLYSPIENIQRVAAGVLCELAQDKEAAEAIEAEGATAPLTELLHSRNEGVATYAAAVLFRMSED
- test_protocol: Phage Library Screening with NGS, beta-catenin
- Assay type: binding
- condition_parameters: beta-catenin target concentration 100; no competitor
Ends that are not written are not given here.
One number for each entry.

List reported Target Concentration 100 (phage screen NGS readout) for each of these sequences:
1. DPAIMACYQAAFWCQYN
2. DPAQQDCTLAAHVCRVF
3. DPAILDCSIAAIDCAYS
4. DPAEAECILAAHICNIS
5. DPAEIICYEAAFLCQYQ
6. DPAMIQCQWAAEHCELI
7. DPAVFMCYEAAFECQYF

[out]
4
19
16
37
0
4
0

List reported Target Concentration 100 (phage screen NGS readout) for each of these sequences:
1. DPAELACEWAAIHCELV
2. DPAVEDCVLAAHVCAWF
3. DPAVFECSLAAIDCLQI
4. DPAVLECHIAAWECNHT
5. DPAEWDCMHAALICEVH
6. DPAILNCHVAAWNCHSF
7. DPADYECVIAAQVCQHF (not fully specified; cysteine pairing not given here)
8. DPAAQRCTWAAIHCELI

[out]
1. 41
2. 47
3. 10
4. 22
5. 55
6. 1
7. 11
8. 7

* * *

- target_or_system: RNF31 PUB domain (Homo sapiens, UniProt Q96EP0)
- Construct: MBP-TEV (N, cleaved yes); made in house; host or cells: E. coli BL21 (DE3) pLysS
- Sequence (Q96EP0 1-179): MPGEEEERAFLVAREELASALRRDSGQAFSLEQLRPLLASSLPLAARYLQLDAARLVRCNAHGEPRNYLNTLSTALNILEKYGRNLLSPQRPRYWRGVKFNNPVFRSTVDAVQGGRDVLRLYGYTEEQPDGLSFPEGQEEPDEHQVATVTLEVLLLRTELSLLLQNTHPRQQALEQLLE
- test_protocol: Phage Library Screening with NGS, RNF31 PUB domain
- Type: binding
- condition_parameters: RNF31 PUB domain clusters C41-C45; target concentration 1000, first column
Label rule, in plain words: Phage library screen NGS readout, Target Concentration 1000 of 10 and up is satisfied, under 10 is not satisfied.

> print(dat)
                                        seq  group.label
1                         DPANFTCRVAADVCSTY    satisfied
2                         DPAIAQCMLAAQVCSTY    satisfied
3  DPARDWCLYAAYDCYTA (Ac-DPARDWCLYAAYDCYTA-NH2; not fully specified (bridges); cysteine pairing not given here)    satisfied

[in] Please tell me: is the sequence DPAWTDCDWAALYCEFQ at or over 10 in terms of Phage library screen NGS readout, Target Concentration 1000?
[out] not satisfied

[in] Please tell me: is the sequence DPAHANCQLAADVCSTY at or over 10 in terms of Phage library screen NGS readout, Target Concentration 1000?
[out] satisfied

[in] Please tell me: is the sequence DPALDYCLYAAYDCMYA at or over 10 in terms of Phage library screen NGS readout, Target Concentration 1000?
[out] not satisfied

[in] Please tell me: is the sequence DPAWWDCMYAASHCDTV at or over 10 in terms of Phage library screen NGS readout, Target Concentration 1000?
[out] satisfied

* * *

- target_or_system: beta-catenin (Homo sapiens)
- Construct: made in house; host or cells: E. coli BL21 (DE3) pLysS
- Sequence (P35222 134-665): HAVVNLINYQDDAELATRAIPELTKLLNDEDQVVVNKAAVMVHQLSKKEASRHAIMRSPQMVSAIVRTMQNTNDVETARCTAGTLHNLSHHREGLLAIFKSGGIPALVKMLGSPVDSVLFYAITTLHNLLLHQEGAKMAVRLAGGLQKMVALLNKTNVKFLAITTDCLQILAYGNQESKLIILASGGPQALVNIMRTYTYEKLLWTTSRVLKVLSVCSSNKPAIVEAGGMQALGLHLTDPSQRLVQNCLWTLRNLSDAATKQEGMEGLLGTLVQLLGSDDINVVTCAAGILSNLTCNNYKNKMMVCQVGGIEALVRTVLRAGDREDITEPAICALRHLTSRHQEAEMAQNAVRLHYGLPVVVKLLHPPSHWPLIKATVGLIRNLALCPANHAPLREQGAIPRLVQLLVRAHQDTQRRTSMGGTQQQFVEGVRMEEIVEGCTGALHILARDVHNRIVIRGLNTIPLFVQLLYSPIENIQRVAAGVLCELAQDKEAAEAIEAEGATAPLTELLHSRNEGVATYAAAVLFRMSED
- test_protocol: Phage Library Screening with NGS, beta-catenin
- Assay type: binding
- condition_parameters: beta-catenin target concentration 30; no competitor
Label rule, in plain words: Target Concentration 30 (phage screen NGS readout) of 1 and up is 1 (yes), under 1 is 0 (no).

> print(dat)
                 seq  group.label
1  DPAAQRCTWAAIHCELI       0 (no)
2  DPAEWDCMHAALICEVH      1 (yes)
3  DPAYWVCEHAALLCTDY      1 (yes)

[in] Please tell me: is the sequence DPAEAECILAAHICNIS at or over 1 in terms of Target Concentration 30 (phage screen NGS readout)?
[out] 0 (no)

[in] Please tell me: is the sequence DPAFESCFLAAHICYWE at or over 1 in terms of Target Concentration 30 (phage screen NGS readout)?
[out] 0 (no)

[in] Please tell me: is the sequence DPAVHRCFWAAEHCDLI at or over 1 in terms of Target Concentration 30 (phage screen NGS readout)?
[out] 1 (yes)

[in] Please tell me: is the sequence DPAHWRCEHAALLCWYN at or over 1 in terms of Target Concentration 30 (phage screen NGS readout)?
[out] 1 (yes)

[in] Please tell me: is the sequence DPAQFYCEHAALLCRWE at or over 1 in terms of Target Concentration 30 (phage screen NGS readout)?
[out] 0 (no)

[in] Please tell me: is the sequence DPAILNCHVAAWNCHSF at or over 1 in terms of Target Concentration 30 (phage screen NGS readout)?
[out] 0 (no)

[in] Please tell me: is the sequence DPAEWACEHAALTCWDQ at or over 1 in terms of Target Concentration 30 (phage screen NGS readout)?
[out] 1 (yes)

[in] Please tell me: is the sequence DPARHECILAAHICEWE at or over 1 in terms of Target Concentration 30 (phage screen NGS readout)?
[out] 1 (yes)

* * *

For each record, write down the corresponding Target Concentration BLANK (phage screen NGS readout).
- target_or_system: beta-catenin (Homo sapiens, UniProt P35222)
- Construct: made in house; host or cells: E. coli BL21 (DE3) pLysS
- Sequence (P35222 134-665): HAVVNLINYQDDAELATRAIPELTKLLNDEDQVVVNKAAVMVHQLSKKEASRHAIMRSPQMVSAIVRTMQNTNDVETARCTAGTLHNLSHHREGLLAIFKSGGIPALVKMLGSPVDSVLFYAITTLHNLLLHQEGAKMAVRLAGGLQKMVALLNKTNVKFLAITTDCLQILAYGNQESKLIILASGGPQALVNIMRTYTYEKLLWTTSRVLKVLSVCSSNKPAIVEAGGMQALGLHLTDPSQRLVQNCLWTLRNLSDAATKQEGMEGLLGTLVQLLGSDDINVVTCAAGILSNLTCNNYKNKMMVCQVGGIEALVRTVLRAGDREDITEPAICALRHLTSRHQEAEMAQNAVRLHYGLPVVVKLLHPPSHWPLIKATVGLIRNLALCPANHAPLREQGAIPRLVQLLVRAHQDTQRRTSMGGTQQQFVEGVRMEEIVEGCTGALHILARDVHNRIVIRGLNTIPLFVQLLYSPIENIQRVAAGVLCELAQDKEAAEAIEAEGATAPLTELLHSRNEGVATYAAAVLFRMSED
- test_protocol: Phage Library Screening with NGS, beta-catenin
- Format: binding
- condition_parameters: BLANK, second column
Numbers only.

As a guide, the following entries are already answered.
> print(dat)
                 seq  measured.number
1  DPAQWACEHAALLCSMD                1
2  DPAHLMCHYAAWDCRDE                0
3  DPAAQRCTWAAIHCELI                0
4  DPAILDCQLAAMDCSTW                0
5  DPAEIICYEAAFLCQYQ                0

Noted for DPAMSQCNWAAVHCQLL : its Target Concentration BLANK (phage screen NGS readout) reads 0

The reported measurements were obtained from patent US20240376151A1.
